# Test system: HL-60 cell line
# assayExplanation: MTT cell viability assay, HL-60
# Type: cell-based
# conditionLabel: Homo sapiens, 72 hrs
Recorded measurements of IC50, one per entry
Could you give me the number in µM? Just the number is fine.

structureSmiles	unitDescriptor	IC50
C=CCc1cccc(/C=N/NC(=O)CN2CCN(Cc3nc(-c4ccc(COc5ccccc5C(F)(F)F)cc4)no3)CC2)c1O	µM	0.35
O=C(CN1CCN(Cc2nc(-c3ccc(COc4ccc(F)c(F)c4)cc3)no2)CC1)N/N=C/c1ccc(OCc2ccccc2)cc1O	µM	0.34
CC(C)(C)c1ccc(COc2ccc(/C=N/NC(=O)CN3CCN(Cc4nc(-c5ccc(COc6ccccc6C(F)(F)F)cc5)no4)CC3)c(O)c2)cc1	µM	0.4
C=CCc1cccc(/C=N/NC(=O)CN2CCN(Cc3nc(-c4ccc(COc5ccc(Cl)cc5)cc4)no3)CC2)c1O	µM	0.25

As a next step, examine the molecule that follows.
stdin: Give recorded IC50. O=C(CN1CCN(Cc2nc(-c3ccc(COc4ccc(Cl)cc4)cc3)no2)CC1)N/N=C/c1ccc(OCc2ccc(Cl)cc2Cl)cc1O
stdout: 1.07
